Listed here are compounds together with their documented pIC50.
- EXPERIMENTAL_TARGET: EGFR L858R/T790M/C797S (Homo sapiens (Human), UniProt P00533, C797S/L858R/T790M)
- Sequence (P00533 25-1210 T790M/C797S/L858R): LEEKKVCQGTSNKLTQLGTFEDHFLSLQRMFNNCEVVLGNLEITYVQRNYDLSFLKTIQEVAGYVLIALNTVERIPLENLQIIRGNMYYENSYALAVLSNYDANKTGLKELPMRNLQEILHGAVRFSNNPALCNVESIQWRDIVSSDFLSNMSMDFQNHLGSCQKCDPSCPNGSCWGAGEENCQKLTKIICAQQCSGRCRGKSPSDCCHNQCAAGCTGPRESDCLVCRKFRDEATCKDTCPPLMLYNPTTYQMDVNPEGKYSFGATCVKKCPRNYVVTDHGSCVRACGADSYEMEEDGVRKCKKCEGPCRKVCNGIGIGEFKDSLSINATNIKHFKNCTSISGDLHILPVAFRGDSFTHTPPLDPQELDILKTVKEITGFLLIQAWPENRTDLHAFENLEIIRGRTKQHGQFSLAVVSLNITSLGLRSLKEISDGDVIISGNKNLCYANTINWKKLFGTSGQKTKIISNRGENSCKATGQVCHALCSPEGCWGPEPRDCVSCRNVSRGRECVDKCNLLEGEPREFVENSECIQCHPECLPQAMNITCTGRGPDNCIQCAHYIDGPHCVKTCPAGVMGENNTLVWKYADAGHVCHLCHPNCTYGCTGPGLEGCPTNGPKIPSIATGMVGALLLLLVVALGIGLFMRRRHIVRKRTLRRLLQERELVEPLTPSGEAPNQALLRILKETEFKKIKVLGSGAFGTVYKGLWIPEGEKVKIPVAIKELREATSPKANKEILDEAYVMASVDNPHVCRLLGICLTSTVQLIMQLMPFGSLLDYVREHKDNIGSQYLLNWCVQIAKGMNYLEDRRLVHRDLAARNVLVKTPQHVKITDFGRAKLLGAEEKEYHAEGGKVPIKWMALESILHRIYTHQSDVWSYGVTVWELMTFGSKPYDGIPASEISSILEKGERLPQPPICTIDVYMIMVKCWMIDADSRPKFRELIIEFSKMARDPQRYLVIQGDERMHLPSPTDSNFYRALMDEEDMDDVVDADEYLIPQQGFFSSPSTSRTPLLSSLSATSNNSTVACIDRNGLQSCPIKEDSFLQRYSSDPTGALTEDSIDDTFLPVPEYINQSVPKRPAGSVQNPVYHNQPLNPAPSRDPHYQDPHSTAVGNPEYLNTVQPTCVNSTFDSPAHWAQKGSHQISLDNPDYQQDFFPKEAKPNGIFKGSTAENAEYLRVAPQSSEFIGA
- EXPERIMENTAL_PROTOCOL: In vitro enzymatic TR-FRET (HTRF KinEASE-TK) kinase assay, EGFR L858R/T790M/C797S
- ASSAY_CONDITIONS: kinase activity
pIC50: −log10 of the molar value.

Use these answered entries as a reference point.
INSERT INTO assay_data (compound, result) VALUES
  ('COc1cc2c(cc1Nc1ncc(Br)c(Nc3ccc4nccnc4c3P3(=O)CCN(C)CC3)n1)-c1cnn(C)c1CCN2C(C)C', '> 9.00'),
  ('COc1cc2c(cc1Nc1ncc(Br)c(Nc3ccccc3NS(C)(=O)=O)n1)-c1cnn(C)c1CCN2', '8.00 to 9.00'),
  ('COc1cc2c(cc1Nc1ncc(Br)c(Nc3ccc4nccnc4c3P(C)(C)=O)n1)-c1cnn(C)c1CCN2C1CCN(C)C[C@@H]1F (stereo partly shown)', '> 9.00'),
  ('COc1cc2c(cc1Nc1ncc(F)c(Nc3ccccc3P(C)(C)=O)n1)-c1cnn(C)c1CCN2C', '8.00 to 9.00'),
  ('COc1cc2c(cc1Nc1nccc(Nc3ccccc3P(C)(C)=O)n1)-c1cnn(C)c1CCN2C(C)C', '> 9.00'),
  ('COc1cc2c(cc1Nc1ncc(Br)c(Nc3ccccc3P(C)(C)=O)n1)-c1cccnc1CCN2C', '8.00 to 9.00');

Let us move to another entry and its pIC50.
Ask | Suppose we examine the compound COc1nc2c(cc1Nc1ncc(Br)c(Nc3ccc4nccnc4c3NS(C)(=O)=O)n1)-c1cnn(C)c1CCN2C ; what pIC50 value has been reported?
Reply | > 9.00
